target: wild-type AM2 channel (AM2-WT) (Influenza A virus); assay: biochemical; conditions: pH 5.5, read-out: Electrophysiological TEVC assay (% WT channel inhibition), 100 μM, two-minute time point, pH 5.5, Xenopus laevis oocytes
Sequence (P0DOF5 whole entry): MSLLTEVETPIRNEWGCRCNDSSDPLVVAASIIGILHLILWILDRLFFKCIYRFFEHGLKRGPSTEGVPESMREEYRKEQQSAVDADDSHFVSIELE
RESULT_TYPE: inhibition at 100 µM

Measured on wild-type AM2 channel (AM2-WT) (Influenza A virus), COc1sccc1-c1cc(CNC23CC4CC(CC(C4)C2)C3)no1 has a documented inhibition at 100 µM of ≤ 30%

The reported inhibition at 100 µM value, wild-type AM2 channel (AM2-WT) (Influenza A virus), for OC12CC3CC(C1)CC(NCc1cc(-c4ccccc4Cl)on1)(C3)C2 reads ≤ 30%

Reported wild-type AM2 channel (AM2-WT) (Influenza A virus) inhibition at 100 µM for item c1ccc(-c2cc(CNC34CC5CC(CC(C5)C3)C4)no2)cc1 was ≤ 30%

So the reported inhibition at 100 µM for Oc1ccccc1-c1cc(CNC23CC4CC(CC(C4)C2)C3)no1 , on wild-type AM2 channel (AM2-WT) (Influenza A virus), turned out to be ≤ 30%

Value sought: inhibition at 100 µM, system wild-type AM2 channel (AM2-WT) (Influenza A virus), item CSc1ccccc1-c1cc(CNC23CC4CC(CC(O)(C4)C2)C3)no1 . Result: ≤ 30%

====

test system: A/California/07/2009 (H1N1) virus; experiment: microbe, parasite or virus in culture; type: cell-based, influenza A virus; settings: read-out: EC50 against A/California/07/2009 (H1N1)
RESULT_TYPE: pEC50
// scale note: pEC50 = -log10(conc_M); give the bare number

Reported pEC50 (A/California/07/2009 (H1N1) virus) for entry Clc1ccc(-c2cc(CNC34CC5CC(CC(C5)C3)C4)no2)s1 is 7.00
